Origin of measurements: patent US20240067748A1

Target: T1, monkey Trop2 protein (Sino Biological, #90893-C08H) (monkey, UniProt A0A2K5UE71 27-274)
T1 construct: bought protein; also called monkey Trop2 protein antigen (His tag)
T1 sequence: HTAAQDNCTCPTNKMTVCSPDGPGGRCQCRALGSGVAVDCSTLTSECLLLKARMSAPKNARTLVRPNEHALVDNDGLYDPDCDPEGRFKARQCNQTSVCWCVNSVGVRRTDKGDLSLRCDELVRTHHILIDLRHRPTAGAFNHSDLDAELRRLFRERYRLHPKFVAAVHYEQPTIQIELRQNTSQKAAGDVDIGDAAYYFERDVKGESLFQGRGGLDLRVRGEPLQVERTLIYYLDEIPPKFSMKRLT
Experiment: BLI, Octet RED96, AHC sensor
measurement.name: pKd
pKd here: minus log base 10 of the concentration, concentration in moles per litre.

[
  {
    "binder": "PR001150 (antibody, human IgG1, kappa, V domains shown, fully human IgG1/kappa; also called antibody No. (13)) VH: QVQLVESGGGVVQPEKSLRLSCAASGFTFSHYGMHWVRQVPGKGLEWVAVIWYDGIKRYYVESVKGRFTISRDNSKNTLYLQMNRLRAEDTAVYYCARDGGFGESNYYGLDVWGQGTTVTVSS VL: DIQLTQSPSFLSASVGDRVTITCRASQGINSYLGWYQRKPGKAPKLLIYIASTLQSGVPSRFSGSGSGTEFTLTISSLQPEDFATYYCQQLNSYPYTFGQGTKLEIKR",
    "pKd": 9.50
  }
]

Now take the following binder into account.
Provide only the value of recorded pKd for PR001134 (antibody, human IgG1, kappa, V domains shown, fully human IgG1/kappa; also called antibody No. (6)) VH: QVQLVESGGGVVQPGRSLRVSCIASGFFFSSYGMHWVRQAPGKGLEWVAVIWYDGSNEDYVDSVKGRFTISRDNSKNTLYLQMNSLRGEDTAMYYCARGGYNSGWWAFDIWGQGTMVTVSS VL: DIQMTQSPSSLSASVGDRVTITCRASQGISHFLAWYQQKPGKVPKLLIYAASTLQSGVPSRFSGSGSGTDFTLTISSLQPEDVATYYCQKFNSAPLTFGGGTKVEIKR
8.03
